Just for reference, patent US20230183291A1 is where these values come from.

TESTED_ON: T1, Biotinylated Human ACE2, His, Avitag protein (ACROBiosystems, AC2-H82E6) (human, UniProt Q9BYF1 18-740)
T1 construct: also called biotinylated ACE2; ACE2 protein; not shown: His tag and Avitag
RUN_DESCRIPTION: SPR single cycle kinetics, ACE2 captured on CAP chip, peptide analyte; geometric mean; † high bulk contribution observed, treat with caution
Numbered stars: 1 amine (or outer) side, 2 acyl side, 3 side chain; on linkers, the order of the positions; unused ones are H or OH. Bridge positions count the residues as written; N and C are the ends. Square brackets hold non-standard residues; d marks the D form. Ends that are not written are not given here. TATA = O=C(CC[*:1])N1CN(C(=O)CC[*:2])CN(C(=O)CC[*:3])C1; Phe(4-Cl) = N[C@@H](Cc1ccc(Cl)cc1)C(=O)O; PYA = propargyl-acid
Exercise: state measured Kd for each of the binders provided.
Give the number first and the unit second.

Prompt: Tell me Kd reported for ACNAVLCSWARANS[Phe(4-Cl)]CA (linker 2-7-16 via TATA, bicyclic peptide, TATA scaffold) [BCY17340]
Completion: 16.9 nM

Prompt: Tell me Kd reported for ACNAVLCSWARANSFCAK(PYA) (linker 2-7-16 via TATA, bicyclic peptide, TATA scaffold) [BCY17344]
Completion: 3.2 nM
